Molecular target: KRas G12C (Homo sapiens, UniProt P01116, C118S/C51S/C80L/G12C)
Assay: KRas G12C Modification Assay (LCMS detection of covalent adduct)
Format: binding
Settings: normalized percent of control; tested at 5 μM concentration for 3 hours
assay-metric: POC

Examples from the recorded data:
C=CC(=O)N1CCN(c2nc(OCC3COCCN3C)nc3c2CCN(c2cc(O)cc4ccccc24)C3)CC1 (stereo not shown) | C (“C”>50% POC)
C=CC(=O)N1CCN(c2nc(OC[C@@H]3CCCN3C)nc3c2CCN(c2c(C)ccc4[nH]ncc24)C3)CC1CC#N (stereo partly shown) | C (“C”>50% POC)
C=CC(=O)N1CCN(c2nc(OC[C@@H]3CCCN3C)nc3c2CCN(c2cccc(Cl)c2C(F)(F)F)C3)CC1CC#N (stereo partly shown) [Example 277] | C (“C”>50% POC)
C=CC(=O)N1CCN(c2nc(OC[C@@H]3CCCN3C)nc3c2CCN(c2cccc4cccc(C)c24)C3)CC1CC#N (stereo partly shown) | C (“C”>50% POC)
C=CC(=O)N1CCN(c2nc(OC[C@@H]3CCCN3C)nc3c2CCN(c2cccc(F)c2OC)C3)CC1CC#N (stereo partly shown) | C (“C”>50% POC)
C=CC(=O)N1CCN(c2nc(OCCCN3CCOCC3)nc3c2CCN(c2c(C)ccc4[nH]ccc24)C3)CC1 | C (“C”>50% POC)

Note: attention shifts to another entry.
Exam item: Read the entry Cc1cccc2cccc(N3CCc4c(nc(OC[C@@H]5CCCN5C)nc4N4CCN(C(=O)/C=C/CN(C)C)[C@@H](CC#N)C4)C3)c12 and write its reported POC.
Marked response: C (“C”>50% POC)

----------
Test system: NCI-H358 cells (express KRas G12C), Phospho-ERK
Experiment: Cellular inhibition of KRas G12C: Phospho-ERK in NCI-H358 cells
Format: cell-based
Settings: Homo sapiens, NCI-H358, 3 h, pERK(Thr202/Tyr204) normalized with GAPDH; NCI-H358 cells; 3 hours; read-out: IC50
assay-metric: IC50

Examples from the recorded data:
C=CC(=O)N1CCN(c2nc(OCCN3CCC(F)(F)C3)nc3c2CCN(c2cc(O)cc4ccccc24)C3)CC1 [Example 139] | > 1 µM
C=CC(=O)N1CCN(c2nc(OC[C@@H]3CCCN3C)nc3c2CCN(c2cc(O)cc4ccccc24)C3)C(CO)C1 (stereo partly shown) [Example 169] | 0.0001 to 1 µM

Note: attention shifts to another entry.
Exam item: State the measured IC50 (NCI-H358 cells (express KRas G12C), Phospho-ERK) of C=CC(=O)N1CCN(c2nc(N3CCC(N(C)C)CC3)nc3c2CCN(c2cc(O)cc4ccccc24)C3)CC1 [Example 17]
Marked response: > 1 µM

----------
// reported IC50 per item
System: NCI-H358 cells (express KRas G12C), Phospho-ERK
Assay: Cellular inhibition of KRas G12C: Phospho-ERK in NCI-H358 cells
Format: cell-based
Conditions: Homo sapiens, NCI-H358, 3 h, pERK(Thr202/Tyr204) normalized with GAPDH; NCI-H358 cells; 3 hours; read-out: IC50

Examples from the recorded data:
C=CC(=O)N1CCN(c2nc(OC[C@@H]3CCN(C)C3)nc3c2CCN(c2cc(O)cc4ccccc24)C3)CC1 [Example 110] | 0.0001 to 1 µM
C=CC(=O)N1CCN(c2nc(O[C@@H](C)[C@@H]3CCCN3C)nc3c2CCN(c2cc(O)cc4ccccc24)C3)CC1 [Example 130] | 0.0001 to 1 µM
CC#CC(=O)N1CCN(c2nc(OC[C@@H]3CCCN3C)nc3c2CCN(c2cccc(C)c2C)C3)C[C@@H]1CC#N [Example 389] | > 1 µM

Exam item: Read the entry C=CC(=O)N1CCN(c2nc(OC[C@@H]3CCCN3C)nc3c2CCN(c2c(Cl)ccc4[nH]ncc24)C3)CC1 [Example 250] and write its reported IC50.
Marked response: > 1 µM

Exam item: Read the entry C=CC(=O)N1CCN(c2nc(OCCN3CCC[C@@H](OC)C3)nc3c2CCN(c2cc(O)cc4ccccc24)C3)CC1 [Example 99] and write its reported IC50.
Marked response: > 1 µM

Exam item: Read the entry C=CC(=O)N1CCN(c2nc(OC[C@@H]3CCCN3C)nc3c2CCN(c2cnccc2C2CC2)C3)C[C@@H]1CC#N [Example 352] and write its reported IC50.
Marked response: 0.0001 to 1 µM

Exam item: Read the entry C=CC(=O)N1CCN(c2nc(OC[C@@H]3CCCN3C)nc3c2CCN(c2cnccc2C#N)C3)C[C@@H]1CC#N [Example 305] and write its reported IC50.
Marked response: > 1 µM

Exam item: Read the entry C=CC(=O)N1CCN(c2nc(OC(C)CN(C)C)nc3c2CCN(c2cc(O)cc4ccccc24)C3)CC1 (centres unmarked) [Example 11] and write its reported IC50.
Marked response: 0.0001 to 1 µM

----------
// reported IC50 per item
System: NCI-H358 cells (express KRas G12C), Phospho-ERK
Assay: Cellular inhibition of KRas G12C: Phospho-ERK in NCI-H358 cells
Type: cell-based
Conditions: Homo sapiens, NCI-H358, 3 h, pERK(Thr202/Tyr204) normalized with GAPDH; NCI-H358 cells; 3 hours; read-out: IC50

C=CC(=O)N1CCN(c2nc(OC(C)CCN3CCOCC3)nc3c2CCN(c2cc(O)cc4ccccc24)C3)CC1 (stereo not shown) | > 1000 nM
C=CC(=O)N1CCN(c2nc(OC[C@H]3CCCN3C)nc3c2CCN(c2cc(O)cc4ccccc24)C3)[C@@H](C)C1 | 0.1 to 1000 nM
C=CC(=O)N1CCN(c2nc(OC[C@@H]3CCCN3C)nc3c2CCN(c2cccc(Cl)c2OC)C3)C[C@@H]1CC#N | 0.1 to 1000 nM
C=CC(=O)N1CCN(c2nc(N3CCOCC3)nc3c2CCN(c2cc(O)cc4ccccc24)C3)CC1 | > 1000 nM

Exam item: Read the entry C=CC(=O)N1CCN(c2nc(OC[C@@H]3CCCN3C)nc3c2CCN(c2cnccc2C(F)(F)F)C3)CC1CC#N (stereo partly shown) and write its reported IC50.
Marked response: 0.1 to 1000 nM

Exam item: Read the entry C=CC(=O)N1CCN(c2nc(OC[C@H]3CCCN3C)nc3c2CCN(c2c(C(F)(F)F)ccc4[nH]ncc24)C3)CC1CC#N (stereo partly shown) and write its reported IC50.
Marked response: 0.1 to 1000 nM

Exam item: Read the entry C=CC(=O)N1CCN(c2nc(OC[C@@H]3CN(C)CCO3)nc3c2CCN(c2cccc4ccccc24)C3)CC1CC#N (stereo partly shown) and write its reported IC50.
Marked response: 0.1 to 1000 nM

----------
Biological target: KRas G12C (Homo sapiens, UniProt P01116, C118S/C51S/C80L/G12C)
Experiment: KRas G12C Modification Assay (LCMS detection of covalent adduct)
Type: binding
Conditions: normalized percent of control; tested at 5 μM concentration for 3 hours
assay-metric: POC

Examples from the recorded data:
C=CC(=O)N1CCN(c2nc(OCCCN3CCOCC3)nc3c2CCN(c2ccc(O)cc2OC(F)(F)F)C3)CC1 | A (“A”≤25% POC)
C=CC(=O)N1CCN(c2nc(OC[C@@H]3CCCN3C)nc3c2CCN(c2cncc(Cl)c2C)C3)C[C@@H]1CC#N | C (“C”>50% POC)
C=CC(=O)N1CCN(c2nc(OCCCN3CCCCC3)nc3c2CCN(c2c(C)ccc4[nH]ncc24)C3)CC1 | C (“C”>50% POC)
CN(C)C/C=C/C(=O)N1CCN(c2nc(OC[C@H]3CCCN3C)nc3c2CCN(c2cccc(Cl)c2C(F)(F)F)C3)C[C@@H]1CC#N | C (“C”>50% POC)
C[C@H](CN(C)C)Oc1nc2c(c(N3CCN(C(=O)/C=C/CN(C)C)CC3)n1)CCN(c1cc(O)cc3ccccc13)C2 [Example 122, bis-trifluoroacetate] | C (“C”>50% POC)

Exam item: Read the entry C=CC(=O)N1CCN(c2nc(OCCCN(C)C)nc3c2CCN(C(C)c2ccccc2)C3)CC1 (stereo not shown) and write its reported POC.
Marked response: A (“A”≤25% POC)

Exam item: Read the entry C=CC(=O)N1CCN(c2nc(OCC(C)N(C)C)nc3c2CCN(c2cc(O)cc4ccccc24)C3)CC1 (stereo not shown) and write its reported POC.
Marked response: C (“C”>50% POC)

----------
Target: KRas G12C (Homo sapiens, UniProt P01116, C118S/C51S/C80L/G12C)
Test: KRas G12C Modification Assay (LCMS detection of covalent adduct)
Type: binding
Settings: normalized percent of control; tested at 5 μM concentration for 3 hours
assay-metric: POC

Examples from the recorded data:
C=CC(=O)N1CCN(c2nc(OC[C@H]3C[C@H](F)CN3C)nc3c2CCN(c2cccc(F)c2C(F)(F)F)C3)CC1CC#N (stereo partly shown) | C (“C”>50% POC)
C=CC(=O)N1CCN(c2nc(OC[C@H]3CCCN3C)nc3c2CCN(c2cccc(F)c2C(F)(F)F)C3)C[C@@H]1CC#N | C (“C”>50% POC)
C=CC(=O)N1CCN(c2nc(OC[C@@H]3CCCN3C)nc3c2CCN(c2cccc4ccccc24)C3)[C@H](C)C1 | C (“C”>50% POC)
C=CC(=O)N1CCN(c2nc(OCC(O)CN3CCOCC3)nc3c2CCN(c2cc(O)cc4ccccc24)C3)CC1 (stereo not shown) | A (“A”≤25% POC)
C=CC(=O)N1CCN(c2nc(OC[C@@H]3CC(F)(F)CN3C)nc3c2CCN(c2cccc4cccc(Cl)c24)C3)C[C@@H]1CC#N | C (“C”>50% POC)
C=CC(=O)N1CCN(c2nc(O[C@H](C)CN(C)C)nc3c2CCN(c2cc(O)ccc2OC)C3)CC1 | A (“A”≤25% POC)

Note: attention shifts to another entry.
Exam item: State the measured POC (KRas G12C (Homo sapiens, UniProt P01116, C118S/C51S/C80L/G12C)) of C=CC(=O)N1CC2(C1)CN(c1nc(OCCCN(C)C)nc3c1CCN(c1cc(O)cc4ccccc14)C3)C2
Marked response: C (“C”>50% POC)
